system: spores of ATCC 630 strain; experiment: Inhibition of germination of C. difficile spores (MIC), strain ATCC 630; type: cell-based; settings: Clostridioides difficile, ATCC630, 1 h; strain 630; sodium taurocholate as germinant, BHIS medium, 37° C., OD580 for 60 min; read-out: MIC (minimum concentration that completely inhibits spore germination)
MEASUREMENT LABEL: MIC (µM)
Answers are plain numbers, in µM.

Study these solved cases before continuing.
CC(C)[C@@H](NC(=O)C[C@@H](C)[C@H]1CC[C@H]2[C@@H]3[C@H](OC(=O)CCCCCCC(=O)O)C[C@@H]4CC(=O)CC[C@]4(C)[C@H]3CC[C@]12C)c1ccc(Br)s1 [Compound I-190]: 0.25
C[C@H](CC(=O)NC(c1ccccc1)c1ccccc1)[C@H]1CC[C@H]2[C@@H]3C(=O)C[C@@H]4CC(=O)CC[C@]4(C)[C@H]3CC[C@]12C [Compound I-61]: 128
CC[C@@H](NC(=O)C[C@@H](C)[C@H]1CC[C@H]2[C@@H]3[C@H](N)C[C@@H]4C[C@H](O)CC[C@]4(C)[C@H]3CC[C@]12C)c1ccc(Cl)s1 [Compound I-171]: 32

Kindly review the next molecule as well.
Challenge: For spores of ATCC 630 strain, provide MIC of CC(C)[C@@H](NC(=O)C[C@@H](C)[C@H]1CC[C@H]2[C@@H]3[C@H](O)CC4=CC(=O)CC[C@]4(C)[C@H]3CC[C@]12C)c1ccc(Cl)s1 [Compound I-158-2] please.
Response given: 0.5

---

test system: spores of ATCC BBA1870 strain; experiment: Inhibition of germination of C. difficile spores (MIC), strain ATCC BBA1870; type: cell-based; details: Clostridioides difficile, ATCCBBA1870STRAIN, 1 h; strain 1870; sodium taurocholate as germinant, BHIS medium, 37° C., OD580 for 60 min; read-out: MIC (minimum concentration that completely inhibits spore germination)
MEASUREMENT LABEL: MIC (µM)
Numbers only, in µM.

Examples with their reported MIC follow.
Cc1ccsc1C(C)NC(=O)C[C@@H](C)[C@H]1CC[C@H]2[C@@H]3C(=O)C[C@@H]4CC(=O)CC[C@]4(C)[C@H]3CC[C@]12C (stereo partly drawn): 8
CC(C)[C@@H](NC(=O)C[C@@H](C)[C@H]1CC[C@H]2[C@@H]3C(=O)C[C@@H]4CC(=O)CC[C@]4(C)[C@H]3CC[C@]12C)c1ccc(Br)s1: 0.125

// for each compound in input: emit MIC
1. CC[C@@H](NC(=O)C[C@@H](C)[C@H]1CC[C@H]2[C@@H]3C(=O)C[C@@H]4CC(=O)CC[C@]4(C)[C@H]3CC[C@]12C)c1ccc(C(=O)CCCCCCC(=O)O)s1
2. CC(NC(=O)C[C@@H](C)[C@H]1CC[C@H]2[C@@H]3[C@H](O)[C@H](O)[C@@H]4C[C@H](O)CC[C@]4(C)[C@H]3CC[C@]12C)c1cccs1 (stereo partly drawn)
3. CC(C)[C@@H](NC(=O)C[C@@H](C)[C@H]1CC[C@H]2[C@@H]3[C@H](OS(=O)(=O)O)C[C@@H]4CC(=O)CC[C@]4(C)[C@H]3CC[C@]12C)c1ccc(Cl)s1
4. CC[C@@H](NC(=O)C[C@@H](C)[C@H]1CC[C@H]2[C@@H]3[C@H](OC(=O)CCC(=O)O)C[C@@H]4CC(=O)CC[C@]4(C)[C@H]3CC[C@]12C)c1ccc(Cl)s1

Response given:
128
8
0.5
2

Could you tell me MIC for each of these compounds? They are listed below.
1. CC[C@@H](NC(=O)C[C@@H](C)[C@H]1CC[C@H]2[C@@H]3[C@H](O)C[C@@H]4CC(=O)CC[C@]4(C)[C@H]3CC[C@]12C)c1ccc(S(=O)(=O)O)s1
2. CCCC(NC(=O)C[C@@H](C)[C@H]1CC[C@H]2[C@@H]3C(=O)C[C@@H]4CC(=O)CC[C@]4(C)[C@H]3CC[C@]12C)c1cccs1 (stereo partly drawn)

Response given:
1. 8
2. 0.5

---

tested on: spores of ATCC BBA1870 strain; test: Inhibition of germination of C. difficile spores (MIC), strain ATCC BBA1870; assay type: cell-based; settings: Clostridioides difficile, ATCCBBA1870STRAIN, 1 h; strain 1870; sodium taurocholate as germinant, BHIS medium, 37° C., OD580 for 60 min; read-out: MIC (minimum concentration that completely inhibits spore germination)
MEASUREMENT LABEL: MIC (µM)
Numbers only, in µM.

Worked cases, answers included:
C[C@H](CC(=O)NCc1nccs1)[C@H]1CC[C@H]2[C@@H]3[C@H](O)C[C@@H]4C[C@H](O)CC[C@]4(C)[C@H]3CC[C@]12C: 16
CC(=O)O[C@@H]1C[C@@H]2CC(=O)CC[C@]2(C)[C@H]2CC[C@]3(C)[C@@H]([C@H](C)CC(=O)N[C@@H](c4ccc(Br)s4)C(C)C)CC[C@H]3[C@H]12: 1
CC(C)[C@@H](NC(=O)C[C@@H](C)[C@H]1CC[C@H]2[C@@H]3[C@H](O)CC4=CC(=O)CC[C@]4(C)[C@H]3CC[C@]12C)c1ccc(Cl)s1: 0.5
C[C@H](CC(=O)NCc1ccco1)[C@H]1CC[C@H]2[C@@H]3C(=O)C[C@@H]4C[C@H](O)CC[C@]4(C)[C@H]3CC[C@]12C: 16

Please go through the list and note MIC for each molecule.
1. CC(C)C(NC(=O)C[C@@H](C)[C@H]1CC[C@H]2[C@@H]3C[C@H](O)[C@@H]4C[C@H](O)CC[C@]4(C)[C@H]3CC[C@]12C)c1cccs1 (stereo partly shown)
2. CC(C)C(NC(=O)C[C@@H](C)[C@H]1CC[C@H]2[C@@H]3C(=O)C[C@@H]4CC(=O)CC[C@]4(C)[C@H]3CC[C@]12C)c1ccc(Br)s1 (stereo partly shown)
3. CC[C@@H](NC(=O)C[C@@H](C)[C@H]1CC[C@H]2[C@@H]3C(=O)C[C@@H]4CC(=O)CC[C@]4(C)[C@H]3CC[C@]12C)c1ccc(Cl)s1

Response given:
1: 8; 2: 0.5; 3: 0.25

---

system: spores of ATCC BBA1870 strain; experiment: Inhibition of germination of C. difficile spores (MIC), strain ATCC BBA1870; format: cell-based; details: Clostridioides difficile, ATCCBBA1870STRAIN, 1 h; strain 1870; sodium taurocholate as germinant, BHIS medium, 37° C., OD580 for 60 min; read-out: MIC (minimum concentration that completely inhibits spore germination)
Answer each item with its documented log10 MIC.
Could you please treat all values as log10 of MIC in µM?

These solved cases illustrate the format of a correct answer.
CCC(NC(=O)C[C@@H](C)[C@H]1CC[C@H]2[C@@H]3[C@H](O)C[C@@H]4CC(=O)CC[C@]4(C)[C@H]3CC[C@]12C)c1ccc(Cl)s1 (stereo partly drawn): -0.30
CC(C)[C@H](NC(=O)C[C@@H](C)[C@H]1CC[C@H]2[C@@H]3[C@H](O)C[C@@H]4CC(=O)CC[C@]4(C)[C@H]3CC[C@]12C)c1ccc(Cl)s1: 0.60
CCCCC(NC(=O)C[C@@H](C)[C@H]1CC[C@H]2[C@@H]3C(=O)C[C@@H]4CC(=O)CC[C@]4(C)[C@H]3CC[C@]12C)c1cccs1 (stereo partly drawn): 0.30
CC(C)[C@@H](NC(=O)C[C@@H](C)[C@H]1CC[C@H]2[C@@H]3C(=O)CC4=CC(=O)CC[C@]4(C)[C@H]3CC[C@]12C)c1ccc(Br)s1: 0.00

Challenge: API: value(readout=log10 MIC, system=spores of ATCC BBA1870 strain) for record "C[C@H](CC(=O)NC(c1cccs1)c1cccs1)[C@H]1CC[C@H]2[C@@H]3C(=O)C[C@@H]4CC(=O)CC[C@]4(C)[C@H]3CC[C@]12C"
Response given: 1.20

---

system: spores of ATCC 630 strain; assay: Inhibition of germination of C. difficile spores (MIC), strain ATCC 630; type: cell-based; settings: Clostridioides difficile, ATCC630, 1 h; strain 630; sodium taurocholate as germinant, BHIS medium, 37° C., OD580 for 60 min; read-out: MIC (minimum concentration that completely inhibits spore germination)
For each record, write down the corresponding MIC.
Give bare numbers, in µM.

// below: answered compounds
CC[C@@H](NC(=O)C[C@@H](C)[C@H]1CC[C@H]2[C@@H]3[C@H](OC(=O)CCC(=O)O)C[C@@H]4CC(=O)CC[C@]4(C)[C@H]3CC[C@]12C)c1ccc(Br)s1 [Compound I-180]: 1
CC(C)C(NC(=O)C[C@@H](C)[C@H]1CC[C@H]2[C@@H]3C(=O)C[C@@H]4CC(=O)CC[C@]4(C)[C@H]3CC[C@]12C)c1ccc(Br)s1 (some centres unmarked) [Compound I-78]: 0.5

Batch of 6 compounds: report MIC for each.
1. CC(=O)O[C@@H]1C[C@@H]2CC(=O)CC[C@]2(C)[C@H]2CC[C@]3(C)[C@@H]([C@H](C)CC(=O)N[C@@H](c4ccc(Cl)s4)C(C)C)CC[C@H]3[C@H]12 [Compound I-177]
2. C[C@H](CC(=O)NCc1cccs1)[C@H]1CC[C@H]2[C@@H]3C(=O)C[C@@H]4CC(=O)CC[C@]4(C)[C@H]3CC[C@]12C [Compound I-26]
3. C[C@H](CC(=O)N[C@H](C)c1ccccc1)[C@H]1CC[C@H]2[C@@H]3C(=O)C[C@@H]4CC(=O)CC[C@]4(C)[C@H]3CC[C@]12C [Compound I-25]
4. CC(C)C(NC(=O)C[C@@H](C)[C@H]1CC[C@H]2[C@@H]3[C@H](O)C[C@@H]4CC(=O)CC[C@]4(C)[C@H]3CC[C@]12C)c1ccc(S(=O)(=O)O)s1 (some centres unmarked) [Compound I-101]
5. CC[C@@H](NC(=O)C[C@@H](C)[C@H]1CC[C@H]2[C@@H]3[C@H](O)C[C@@H]4CC(=O)CC[C@]4(C)[C@H]3C[C@H](O)[C@]12C)c1ccc(Br)s1 [Compound I-165]
6. C[C@H](CC(=O)NCc1ccccc1)[C@H]1CC[C@H]2[C@@H]3[C@H](O)C[C@@H]4C[C@H](O)CC[C@]4(C)[C@H]3CC[C@]12C [Compound I-4]

Response given:
[0.5, 0.5, 1, 32, 32, 8]
